Documented IC50 across a set of compounds
Molecular target: menin-MLL interaction (Homo sapiens, UniProt O00255)
Sequence (O00255 1-610): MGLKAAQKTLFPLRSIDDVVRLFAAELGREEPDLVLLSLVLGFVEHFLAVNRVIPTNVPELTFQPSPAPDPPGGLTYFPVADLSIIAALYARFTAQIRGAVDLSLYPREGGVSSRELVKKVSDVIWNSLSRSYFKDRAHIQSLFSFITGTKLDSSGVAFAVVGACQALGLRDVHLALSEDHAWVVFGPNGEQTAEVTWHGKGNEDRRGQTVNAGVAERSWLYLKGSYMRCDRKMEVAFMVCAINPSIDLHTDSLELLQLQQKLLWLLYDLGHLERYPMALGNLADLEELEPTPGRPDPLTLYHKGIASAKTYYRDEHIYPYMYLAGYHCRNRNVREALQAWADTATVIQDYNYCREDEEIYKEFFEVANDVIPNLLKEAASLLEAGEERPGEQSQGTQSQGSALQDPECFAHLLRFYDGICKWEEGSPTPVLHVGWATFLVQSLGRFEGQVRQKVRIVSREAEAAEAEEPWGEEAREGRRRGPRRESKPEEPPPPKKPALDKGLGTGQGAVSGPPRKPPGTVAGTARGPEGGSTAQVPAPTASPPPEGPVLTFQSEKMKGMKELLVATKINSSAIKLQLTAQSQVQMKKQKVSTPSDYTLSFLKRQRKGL
Experiment: biochemical

Use these answered entries as a reference point.
compound	IC50
NCc1ccc(CN2CCC(CNc3ncnc4sc(CC(F)(F)F)cc34)CC2)cc1	500 to 2000 nM
O=C(CCCc1ccccc1)N1CCN(c2ncnc3sc(CC(F)(F)F)cc23)CC1	500 to 2000 nM
Cc1c(CN2CCC(Nc3ncnc4sc(CC(F)(F)F)cc34)CC2)c(O)cc2c1cc(C#N)n2Cc1c[nH]nn1	< 100 nM

[Q] Return reported IC50; argument: `Nc1cccc(CN2CCC(Nc3ncnc4sc(CC(F)(F)F)cc34)CC2)c1`
[A] 500 to 2000 nM

[Q] Try this compound next: `FC(F)(F)Cc1cc2c(NCC3CCN(Cc4ccccc4C(F)(F)F)CC3)ncnc2s1`
[A] 500 to 2000 nM

[Q] Would you mind doing `Nc1ccccc1CN1CCC(Nc2ncnc3sc(CC(F)(F)F)cc23)CC1` as well?
[A] 100 to 500 nM

[Q] Same question for `COc1cc2c(cc(C#N)n2CCO)c(C)c1CN1CCC(Nc2ncnc3sc(CC(F)(F)F)cc23)CC1` please.
[A] < 100 nM

[Q] `FC(F)(F)c1nnc(N2CCN(c3ncnc4sc(C(F)(F)C(F)(F)F)cc34)CC2)s1` , same question.
[A] 500 to 2000 nM

[Q] And what about the compound `Cc1c(CN2CCC(Nc3ncnc4sc(CC(F)(F)F)cc34)CC2)ccc2c1cc(C#N)n2CCS(C)(=O)=O` ?
[A] < 100 nM

[Q] Moving on to the next compound: `CC(C)CN(c1ccc(CC(=O)N2CCN(c3ncnc4sc(CC(F)(F)F)cc34)CC2)cc1)S(C)(=O)=O`
[A] 500 to 2000 nM

[Q] Check Cc1c(CN2CCC(Nc3ncnc4sc(CC(F)(F)F)cc34)CC2)ccc2c1cc(C#N)n2CC(CO)OC(C)C (centres unmarked) too.
[A] < 100 nM

[Q] Then `Cc1nc[nH]c1Cn1c(C#N)cc2c(C)c(CN3CCC(Nc4ncnc5sc(CC(F)(F)F)cc45)CC3)ccc21` ?
[A] < 100 nM

[Q] Here is the next compound: `FC(F)(F)Cc1cc2c(N3CCN(c4nnc(CC5CCCC5)s4)CC3)ncnc2s1`
[A] 500 to 2000 nM

[Q] Now consider Cc1c(CN2CCC(Nc3ncnc4sc(CC(F)(F)F)cc34)CC2)ccc2c1cc(C#N)n2CCN1CCNC(C)C1 (centres unmarked) .
[A] < 100 nM

====

# maps each entry to its IC50
Biological target: menin-MLL interaction (Homo sapiens)
Experiment: biochemical

compound	test result
Cc1c(CN2CCC(Nc3ncnc4sc(CC(F)(F)F)cc34)CC2)ccc2c1cc(C#N)n2CCN1CCN(C(C)C)CC1	< 100 nM
N#Cc1cc2cc(CN3CCC(Nc4ncnc5sc(CC(F)(F)F)cc45)CC3)ccc2n1CS(N)(=O)=O	< 100 nM
Cc1c(CN2CCC(Nc3ncnc4sc(CC(F)(F)F)cc34)CC2)ccc2c1cc(C#N)n2CCN1CCN(C(=O)CC2CCCCC2)CC1	< 100 nM
COc1ccc(CN2CCC(CNc3ncnc4sc(CC(F)(F)F)cc34)CC2)cc1	500 to 2000 nM

[Q] Please report the recorded IC50 for CC(C(N)=O)n1c(C#N)cc2cc(CN3CCC(Nc4ncnc5sc(CC(F)(F)F)cc45)CC3)ccc21 (stereo not drawn) .
[A] 100 to 500 nM

[Q] And `CC1(C)CN=C(N2CCN(c3ncnc4sc(CCCCc5ccccc5)cc34)CC2)S1` ?
[A] 500 to 2000 nM

[Q] Next entry: `Cn1ccnc1Cn1c(C#N)cc2cc(CN3CCC(Nc4ncnc5sc(CC(F)(F)F)cc45)CC3)ccc21`
[A] < 100 nM

[Q] And `N#Cc1c[nH]c2cc(CN3CCC(Nc4ncnc5sc(CC(F)(F)F)cc45)CC3)ccc12` ?
[A] 100 to 500 nM

[Q] Entry to check: `FC(F)(F)Cc1cc2c(NCC3CCN(Cc4ccc(N5CCCCC5)cc4)CC3)ncnc2s1`
[A] 100 to 500 nM
